Task for the reader: assign each of the following binders its reported EC50.
- EXPERIMENTAL SYSTEM: T1, B7H3 on cells (B7H3 on HEK293 cells; B7H3 expressed from plasmid on HEK-293T and QT6 cells) (human, UniProt Q5ZPR3 29-534)
- T1 construct: whole, on cells; also called HEK293 B7H3 proteins; human B7H3
- T1 sequence (looked up): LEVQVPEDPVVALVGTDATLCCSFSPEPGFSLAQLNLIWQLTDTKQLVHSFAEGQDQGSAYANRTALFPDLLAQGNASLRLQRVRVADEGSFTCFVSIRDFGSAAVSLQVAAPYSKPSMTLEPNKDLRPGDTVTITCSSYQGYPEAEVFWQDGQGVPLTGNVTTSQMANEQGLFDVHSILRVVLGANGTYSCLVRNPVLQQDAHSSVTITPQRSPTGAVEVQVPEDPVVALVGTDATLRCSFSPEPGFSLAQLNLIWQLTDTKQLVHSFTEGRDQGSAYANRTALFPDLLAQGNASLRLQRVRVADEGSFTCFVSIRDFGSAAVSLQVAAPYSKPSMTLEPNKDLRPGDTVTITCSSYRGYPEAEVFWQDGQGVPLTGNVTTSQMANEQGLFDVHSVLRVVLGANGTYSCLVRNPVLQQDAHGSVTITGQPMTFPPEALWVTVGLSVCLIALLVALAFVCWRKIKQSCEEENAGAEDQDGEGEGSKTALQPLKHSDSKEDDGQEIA
- ASSAY OVERVIEW: flow cytometry on HEK293 cells
- Experimental: 2×10⁵ HEK293 cells were resuspended with PBS+5% BSA and incubated for 30 min at 4° C. Different concentrations of humanized antibody (5 μg/mL to 0.002286 μg/mL, 3-fold gradient dilution) were added and incubated for 60 min at 4° C. After centrifugation and washing, a PBS+5% BSA solution containing an FITC-labeled secondary antibody (1:200, sigma, F9512) was added and incubated on ice for 30 min in the dark. […] EC50 was calculated using GraphPad software.
Please reply with the bare figure in µg/mL and do not write the unit itself.

Input: Given the entry humanized 6F7 with light chain variable region LV1 (antibody, V domains shown, also called hz6F7L1; h6F7H1L1) VH: EVQLVESGGGLVQPGGSLRLSCAASGFTFTDYYMSWVRQAPGKGLEWVAFIRNKANGYTTEYSASVKGRFTISRDDSKNSLYLQMNSLRAEDTAVYYCARDSHYRPFAYWGQGTLVTVSS VL: DIVMTQSPLSLPVTPGEPASISCKSSQSLLNSGNQNNYLTWYLQKPGQSPQLLIYLASTRDSGVPDRFSGSGSGTDFTLKISRVEAEDVGVYYCQNDYTYPLTFGGGTKVEIKR , report its measured EC50.
Output: 0.604

Input: Next record, please: humanized 26B6 (antibody, V domains shown, also called hz26B6; h26B6) VH: EVQLVQSGAEVKKPGASVKVSCKASGYTFTEYTMHWVRQAPGQGLEWIGGINPNTGGTTYNQKFNGRVTMTRDTSISTAYMELSSLRSEDTAVYYCTRPYRDDGGFHWYFDVWGQGTLVTVSS VL: EIVLTQSPATLSLSPGERATLSCSASSSVSYMQWYQQKPGLAPRLLIYDTSKLTSGIPDRFSGSGSGTDFTLTISRLEPEDFAVYYCQQWSSNPLTFGGGTKVEIKR
Output: 0.306

Input: Then this binder: chimeric antibody ch26B6 (antibody, V domains shown) VH: EVQLQQSGPELVKPGASVKISCKTSGYAFTEYTMHWVKQSQGKSLEWIGGINPNTGGTTYNQKFNGKATLTVDRSSSTAYMELRSLTSEDSAVYYCTRPYRDDGGFHWYFDVWGAGTAVTVSS VL: QIVLTQSPAVMSTSPGEKVTMTCSASSSVSYMQWYQQKSGTSPKRWIYDTSKLTSGVPARFSGSGSGTSYSLTISSMEAEDAATYYCQQWSSNPLTFGAGTKLELKR
Output: 0.224
